system: A549/SN-38-1 cell line; assay: Anticancer drug sensitivity test, A549/SN-38-1; assay type: cell-based, human; details: IC50 for A549/SN-38-1 divided by IC50 for A549
ENDPOINT: Relative resistance value

Worked examples follow.
N.N.[Cl][Pt][Cl] [Cisplatin]: (0.8)
CCc1c2c(nc3ccc(O)cc13)-c1cc3c(c(=O)n1C2)COC(=O)[C@]3(O)CC [SN-38, 7-ethyl-10-hydroxycamptothecin]: (9.2)
COc1cccc2c1C(=O)c1c(O)c3c(c(O)c1C2=O)C[C@@](O)(C(=O)CO)C[C@@H]3O[C@H]1C[C@H](N)[C@H](O)[C@H](C)O1: (1.9)
CC(=O)O[C@H]1C(=O)[C@@]2(C)[C@H]([C@H](OC(=O)c3ccccc3)[C@]3(O)C[C@H](OC(=O)[C@H](O)[C@@H](NC(=O)c4ccccc4)c4ccccc4)C(C)=C1C3(C)C)[C@]1(OC(C)=O)CO[C@@H]1C[C@@H]2O: (2.0)
COc1cc([C@@H]2c3cc4c(cc3[C@@H](O[C@@H]3O[C@@H]5CO[C@@H](C)O[C@H]5[C@H](O)[C@H]3O)[C@H]3COC(=O)[C@H]23)OCO4)cc(OC)c1O [Etoposide]: (0.3)
Nc1ccn([C@@H]2O[C@H](CO)[C@@H](O)C2(F)F)c(=O)n1: (0.4)
CO[C@@]12[C@H](COC(N)=O)C3=C(C(=O)C(C)=C(N)C3=O)N1C[C@@H]1N[C@@H]12: (1.2)

API: the following record is the query input.
Exercise: Can you look up the measured Relative resistance value of `O=c1[nH]cc(F)c(=O)[nH]1` for me?
Solution: (2.0)

* * *

system: A549/SN-38-2 cell line; assay: Anticancer drug sensitivity test, A549/SN-38-2; assay type: cell-based, human; settings: IC50 for A549/SN-38-2 divided by IC50 for A549
ENDPOINT: Relative resistance value

Completed entries (count: 5):
Nc1ccn([C@@H]2O[C@H](CO)[C@@H](O)C2(F)F)c(=O)n1 [Gemcitabine]: (0.6)
COc1cc([C@@H]2c3cc4c(cc3[C@@H](O[C@@H]3O[C@@H]5CO[C@@H](C)O[C@H]5[C@H](O)[C@H]3O)[C@H]3COC(=O)[C@H]23)OCO4)cc(OC)c1O [Etoposide]: (1.0)
O=c1[nH]cc(F)c(=O)[nH]1 [5-Fluorouracil]: (0.6)
N.N.[Cl][Pt][Cl] [Cisplatin]: (0.9)
CO[C@@]12[C@H](COC(N)=O)C3=C(C(=O)C(C)=C(N)C3=O)N1C[C@@H]1N[C@@H]12 [Mitomycin C]: (1.1)

// each compound listed below needs its Relative resistance value
1. CCc1c2c(nc3ccc(O)cc13)-c1cc3c(c(=O)n1C2)COC(=O)[C@]3(O)CC [SN-38, 7-ethyl-10-hydroxycamptothecin]
2. COc1cccc2c1C(=O)c1c(O)c3c(c(O)c1C2=O)C[C@@](O)(C(=O)CO)C[C@@H]3O[C@H]1C[C@H](N)[C@H](O)[C@H](C)O1 [Doxorubicin]
3. CC(=O)O[C@H]1C(=O)[C@@]2(C)[C@H]([C@H](OC(=O)c3ccccc3)[C@]3(O)C[C@H](OC(=O)[C@H](O)[C@@H](NC(=O)c4ccccc4)c4ccccc4)C(C)=C1C3(C)C)[C@]1(OC(C)=O)CO[C@@H]1C[C@@H]2O [Paclitaxel]

Solution:
["(7.5)", "(1.4)", "(2.4)"]
